format: in vivo, male Crl:CD-1 mice; settings: male, Crl:CD-1, mouse, brain/serum, iv, 50 mg/kg
readout.type: Kp
Respond numerically, and do not add a unit to the figure.

Exam item: Could you share which Kp value was measured for "C[C@@H](O)CCCCn1c(=O)c2c(ncn2C)n(C)c1=O" ?
Marked response: 0.345

* * *

format: in vivo, male Crl:CD-1 mice; conditions: male, Crl:CD-1, mouse, liver/serum, iv, 50 mg/kg
readout.type: Kp

Exam item: Kp lookup needed for C[C@@H](O)CCCCn1c(=O)c2c(ncn2C)n(C)c1=O [LSF] , thanks.
Marked response: 0.859

* * *

type: in vivo, male Crl:CD-1 mice; settings: male, Crl:CD-1, mouse, gut/serum, iv, 50 mg/kg
readout.type: Kp
# respond with the number and nothing more

Exam item: Any idea what its Kp is? The compound is "C[C@@H](O)CCCCn1c(=O)c2c(ncn2C)n(C)c1=O"
Marked response: 0.892

The measurements presented in this section are drawn from paper PMC4954844.
